assay: Primary qHTS for delayed death inhibitors of the malarial parasite plastid, 48 hour incubation; conditions: P. falciparum luciferase growth in erythrocytes; series mostly up to 28.7 µM
In all, about 310,000 compounds went through this assay and about 18,000 (5.8%) were called active. Another 22% or so got no clear call; they are omitted. Calls come from the whole dose curve; as a rule, active = well fitted inhibition curve with a large enough effect; inconclusive = small, poorly fitted or top-dose-only effect, or another doubt; inactive = no such curve, though single readings can be large or run the other way. Shown is part of a subset that was picked to be rich in actives.
Outcome codes: active, inactive

compound | qualitative_label
Cc1ccc(-n2c(Cc3cccs3)nnc2SCC(=O)OC(C)C)cc1 | active
Cc1ccc(NC(=S)NC2CCCC2)cc1 | inactive
Cn1c(=O)c2ccccc2n(CC(=O)Nc2ccc3c(c2)OCCO3)c1=O | inactive
CCOC(=O)c1ccc(NC(=O)c2nc[nH]c2C(=O)NCc2ccccc2)cc1 | inactive
C[C@H](NC(=O)c1nc[nH]c1C(=O)NCC(=O)OC(C)(C)C)C(=O)OCc1ccccc1 | inactive
C=CCCN(Cc1ccccc1)S(=O)(=O)c1ccccc1Br | inactive
Cc1nn(-c2ccccc2)c(C)c1NC(=O)COc1ccc(Cl)cc1Cl | inactive
O=Cc1cn(Cc2ccc(F)cc2Cl)c2ccccc12 | inactive
O=C(NCCc1ccccn1)c1nc(Cn2cc([N+](=O)[O-])cn2)no1 | inactive
c1ccc(C(c2ccccc2)N2CCN(Cc3nnnn3C3CCCCC3)CC2)cc1 | active
CCOc1ccc(N/C(N)=N/c2nc(C)c(C)c(=O)[nH]2)cc1 | inactive
CC(C)Oc1ccc(CCc2n[nH]c(=S)n2Cc2ccccc2)cc1 | active
COc1cccc(NC(=O)[C@H](Cc2c[nH]c3ccccc23)NC(=O)[C@@H]2Cc3ccccc3CN2)c1 | active
CCOC(=O)C1(Cc2cccc(OC)c2)CCN(Cc2csc(C(C)=O)c2)CC1 | inactive
CCOCC(=O)Nc1ncc(S(=O)(=O)c2ccc([N+](=O)[O-])cc2)s1 | inactive
CCN(CC(=O)Nc1c(F)cccc1F)C(=O)c1ccc(S(=O)(=O)N2CCCCC2)cc1 | inactive
Cn1cccc1-c1nc2ccccc2n1C | inactive
COc1ccc(-n2c(SCC(=O)OC(C)C)nnc2-c2ccccn2)cc1 | inactive
COC(=O)C(NC(=O)c1ccc(OC)cc1)(Nc1ncc(S(=O)(=O)c2ccc([N+](=O)[O-])cc2)s1)C(F)(F)F (stereo not given) | active
O=c1c([N+](=O)[O-])cccn1Cc1ccc(F)cc1Cl | active
CCOC(=O)c1ccc(NC(=O)c2nc[nH]c2C(=O)N[C@@H](CCCCNC(=O)OC(C)(C)C)C(=O)OC(C)(C)C)cc1 | active
CC(c1ccccc1)(c1ccccc1)c1ccncc1 | active
COC(=O)c1c(NC(=O)COc2ccc(Cl)cc2Cl)sc2c1CC(C)(C)NC2(C)C | active
C=CCn1c(CCc2ccc(OC(C)C)cc2)n[nH]c1=S | inactive
C=CC(COCc1ccccc1)N(Cc1ccccc1)S(=O)(=O)c1ccccc1Br (stereo not given) | active
COc1ccc(NC(=S)NC2CCS(=O)(=O)C2)cc1 (stereo not given) | inactive
C[N+](C)(CCCCCC[N+](C)(C)CCCN1C(=O)c2cccc3cccc(c23)C1=O)CCCN1C(=O)c2cccc3cccc(c23)C1=O | active
O=C(CN1C(=O)c2cccc3cccc(c23)C1=O)N1CCCCC1 | inactive
O=C(COC(=O)c1ncc(Cl)c(Cl)c1Cl)NNC(=O)c1ccccc1 | inactive
COc1ccc(NC(=O)[C@H](NC(=O)[C@@H]2Cc3ccccc3CN2)c2ccccc2)cc1 | inactive
Cc1cc(S(=O)(=O)NC2CCCC2)ccc1-n1cnnn1 | inactive
O=C(Cc1ccc(Cl)cc1)NC1CCS(=O)(=O)C1 (stereo not given) | inactive
COc1ccccc1CCNS(=O)(=O)c1cn(C)nc1C | inactive
Cc1ccccc1NC(=O)Cn1cc(C(=O)C2CC2)c2ccccc21 | inactive
Cc1ccc(S(=O)(=O)NC2CCCCCC2)cc1C(N)=O | inactive

* * *

assay: Primary qHTS for delayed death inhibitors of the malarial parasite plastid, 48 hour incubation; conditions: P. falciparum luciferase growth in erythrocytes; series mostly up to 28.7 µM
The campaign covered roughly 310,000 compounds. About 18,000 (5.8%) were called active. Roughly 22% stayed inconclusive and do not appear here. Calls follow the shape of the dose curve; as a rule, active = well fitted inhibition curve with a large enough effect; inconclusive = small, poorly fitted or top-dose-only effect, or another doubt; inactive = no such curve, though single readings can be large or run the other way. For the sample, actives were picked, then their nearest neighbours and some compounds at random.
Classes used: active, inactive

compound | qualitative_label
CCc1nnc(NC(=O)CSCc2cc(=O)n3cc(C)sc3n2)s1 | inactive
CCC1Oc2ccccc2N(CC(=O)NCCCN2CCN(CC)CC2)C1=O (stereo not given) | inactive
C#CCOCCOCCOCCNc1nc(N2CCN(C(=O)[C@H](C(C)C)n3cc(CCO)nn3)CC2)nc(N2CCN(C(=O)[C@H](C(C)C)n3cc(CCO)nn3)CC2)n1 | inactive
C#CCOCCOCCOCCNc1nc(N2CCN(C(=O)CCCCCCCCCCNC(=O)Cn3cc(CCCCCN)nn3)CC2)nc(N2CCN(C(=O)CCCCCCCCCCNC(=O)[C@H](CO)n3cc(CCCSC)nn3)CC2)n1 | active
COc1ccc(CCNS(=O)(=O)c2cn(C)nc2C)cc1 | inactive

* * *

test: Primary qHTS for delayed death inhibitors of the malarial parasite plastid, 48 hour incubation; settings: P. falciparum luciferase growth in erythrocytes; series mostly up to 28.7 µM
Out of some 310,000 compounds screened, about 18,000 (5.8%) were called active. Roughly 22% stayed inconclusive and do not appear here. The call rests on the fitted dose curve; in most records, active means well fitted inhibition curve with a large enough effect; inconclusive means small, poorly fitted or top-dose-only effect, or another doubt; inactive means no such curve, though single readings can be large or run the other way. Only a selection was taken, and actives are over-represented in it overall.
Possible outcomes: active, inactive

compound | qualitative_label
O=C(O)c1ccc(Cn2c(=S)[nH]c3cc(Cl)ccc3c2=O)cc1 | inactive
Cc1ccc2c(c1)C1CN(C)CCC1N2C(=S)Nc1ccc(Cl)cc1Cl (stereo not drawn) | inactive
CCOC(=O)Cc1csc(NC(=O)C(C)(C)C)n1 | inactive
Cc1noc(C)c1CCC(=O)N1CCCC(CO)(Cc2ccccc2)C1 (stereo not drawn) | inactive
Cc1ccc(S(=O)(=O)CC(=O)Nc2nnc(C)s2)cc1 | inactive
Cc1cc(NC(=O)CCC(=O)N(CC(=O)NCC2CCCO2)c2ccccc2)no1 (stereo not drawn) | inactive
COc1cccc(-c2nnc(SCCOc3ccc4c(C)cc(=O)oc4c3)o2)c1 | inactive
O=C(COc1ccc(Cl)cc1)Nc1ccc2c(c1)OCO2 | inactive
COc1cc(OC)cc(C(=O)Nc2nnc(SCC(=O)NCC3CCCO3)s2)c1 (stereo not drawn) | inactive
CCOC(=O)Cc1csc(NC(=O)CSc2ccc(Br)cc2)n1 | active
CC(C)(C)n1nnnc1C(c1ccccc1F)N1CCN(C(=O)c2ccco2)CC1 (stereo not drawn) | inactive
O=C(O)c1ccc2c(=O)n3c(nc2c1)/C(=C/c1ccc(OC(F)F)cc1OC(F)F)CC3 | inactive
Cc1ccc(S(=O)(=O)NCCC(=O)NC2CCN(Cc3ccccc3)CC2)cc1 | inactive
COc1ccccc1NC(=O)C(C)OC(=O)c1ccc(-n2cnnn2)cc1 (stereo not drawn) | inactive
O=C(OCC1OC(Oc2ccc(O)cc2)C(O)C(O)C1O)c1ccccc1 (stereo not drawn) | inactive
CCOC(=O)c1cc(-c2ccccc2C)n(Cc2cc(C)no2)n1 | inactive
CC(O)c1nc2ccccc2n1Cc1ccc([N+](=O)[O-])cc1 (stereo not drawn) | inactive
CCOC(=O)Cc1csc(NC(=O)CSc2nc(C)cc(=O)[nH]2)n1 | inactive
COc1cccc(NC(=O)c2nn(-c3ccc(OC)cc3OC)c(=O)c3ccccc23)c1 | inactive
CCc1ccc(OCC(=O)N(Cc2ccccc2)C2CCS(=O)(=O)C2)cc1 (stereo not drawn) | inactive
COc1cc(C(=O)NCC(=O)NCCSc2ccc(Br)cc2)cc(OC)c1OC | inactive
CCN(CC(=O)Nc1cc(Cl)ccc1C)C(=O)CN1C(=O)NC2(CCCC2)C1=O | inactive
CC1(C(=O)NNC(=S)NCC2CCCO2)CC1(Cl)Cl (stereo not drawn) | inactive
CCCCOc1ccc(N(CC(=O)NCC2CCCO2)C(=O)CCC(=O)Nc2cc(C)ccn2)cc1 (stereo not drawn) | active
COC(=O)C1=C(c2ccc(C(C)=O)cc2)C[C@@H]2CC[C@H]1N2C(=O)NCCNC(C)=O | inactive
CCOC(=O)CCCNC(=O)COC(=O)/C=C/c1ccc2c(c1)OCO2 | inactive
COc1ccc2oc(=O)c(C(=O)N3CCN(c4ccccc4F)CC3)cc2c1 | inactive
CCOc1ccc(C(C)=O)cc1COC(=O)CN1C(=O)NC2(CCCC2)C1=O | active
COc1ccc(C(=O)Nc2ccnn2C2CCN(Cc3ccncc3)CC2)cc1 | inactive
CC(=O)c1ccc(Cc2ncc(C(F)(F)F)cc2Cl)s1 | active
CCOc1ccc(C(=O)COC(=O)c2ccc(-n3cnnn3)cc2)cc1 | inactive
CC(C)(C)NC(=O)NC(=O)COC(=O)Cc1ccc(Cl)cc1Cl | inactive
Cc1cc(=O)oc2ccc(OCC(=O)O)cc12 | inactive

* * *

Test: Primary qHTS for delayed death inhibitors of the malarial parasite plastid, 48 hour incubation
Settings: P. falciparum luciferase growth in erythrocytes; series mostly up to 28.7 µM
Excerpt: The goal of this screen is to discover new antimalarial compounds that act by inhibiting the development of the apicoplast in the malarial parasite Plasmodium falciparum. […] We have developed a cell-based assay that measures parasite growth based on the expression of an integrated copy of a firefly luciferase reporter. […] Growth inhibition is detected by a decrease in luciferase activity. […]
The campaign covered roughly 310,000 compounds. About 18,000 (5.8%) were called active. Not shown: some 22% with an inconclusive outcome. The call rests on the fitted dose curve; in most records, active means well fitted inhibition curve with a large enough effect; inconclusive means small, poorly fitted or top-dose-only effect, or another doubt; inactive means no such curve, though single readings can be large or run the other way. What follows is part of a selection rich in actives, with near analogues and random picks from the rest.
Possible outcomes: active, inactive

compound | qualitative_label
Clc1ccc(N/N=C/c2cccs2)nn1 | inactive
Cc1cc(C)n2nc(C(=O)OCC(=O)N(CCC#N)c3ccc(F)cc3)nc2n1 | inactive
Cc1ccc(OCC(=O)NCCCNC(=O)c2ccco2)cc1C | inactive
COc1cccc(/C=N/Nc2ccc(Cl)nn2)c1 | inactive
CCN1CCN(c2ccc(S(=O)(=O)N3CCCCC3)cc2NC(=O)c2cccc(NC(C)=O)c2)CC1 | active
Cc1ccc(S(=O)(=O)N2CCCCC2)cc1NC(=O)c1cccnc1 | inactive
Cc1ccc(S(=O)(=O)N(CC(=O)NCCSC2CCCCC2)c2ccccc2F)cc1 | active
CCOC(=O)c1ccc(NC(=O)C2CC(=O)N(c3ccc4c(c3)OCCO4)C2)cc1 (configuration not stated) | inactive
CCN(CC)S(=O)(=O)c1cc(C(=O)Nc2cc(S(=O)(=O)N3CCOCC3)ccc2N2CCCC2)ccc1F | active
Cc1ccc(OCCC(=O)OCC(=O)N2c3ccccc3NC(=O)C2(C)C)cc1 | inactive
CCN(C(=O)c1cc([N+](=O)[O-])ccc1NCc1cccnc1)c1ccccc1 | inactive
Cc1cc(-c2ccc(S(=O)(=O)N3CCN(c4cccc(C(F)(F)F)c4)CC3)s2)on1 | inactive
O=C(c1cc2cc(Br)cc(Br)c2oc1=O)N1CCOCC1 | inactive
COc1cccc(NC(=O)NCc2ccc(F)cc2)c1 | inactive
COc1ccc(/C=C/C(=O)OCC(=O)Nc2cccc(Oc3ccccc3)c2)c(OC)c1 | inactive
O=C(Nc1ccccc1)C1CCN(C(=O)c2ccc(Br)cc2)CC1 | inactive
Cc1cccc(NC(=O)Nc2nnc(-c3ccccc3)o2)c1 | inactive
O=C(Nc1ccc(S(=O)(=O)N2CCCCC2)cc1)c1cnccn1 | inactive
CCCOC1CCCN(C(=O)c2cc(COc3cncc(Cl)c3)on2)C1 (configuration not stated) | inactive
CCN(CC)S(=O)(=O)c1ccc(N2CCOCC2)c(NC(=O)C2COc3ccccc3O2)c1 (configuration not stated) | inactive
Cc1cccc(N2CCN(C(C)C(=O)N3CCc4ccccc43)CC2)c1C (configuration not stated) | inactive
O=C(Cc1ccccc1)Nc1cccc(NC(=O)c2ccccc2)c1 | inactive
Cc1ccc(C(=O)NCC(=O)NCc2cc(=O)n(C)c(=O)n2C)cc1 | inactive
Cc1cc(SCc2c(F)cccc2Cl)nc(=O)[nH]1 | inactive
COCCCNc1nc2c(-c3cccc(C)c3)nnn2c2ccc(Cl)cc12 | inactive
COc1ccc(S(=O)(=O)NCc2cccnc2)cc1NC(=O)c1ccc(C)cc1 | inactive
COc1ccccc1N1CC(C(=O)NCCN2C(=O)S/C(=C\c3cccnc3)C2=O)CC1=O (configuration not stated) | inactive
